Molecular target: UniProt:Q16552
Assay: IL-8 release assay in human epithelial keratinocytes adult (HEKa)
Settings: 3 ng/ml human IL-17AA + 10 ng/ml human TNFalpha, 68-72 h, IL-8 by HTRF, read-out: Rel EC50 L-8 release assay
pEC50: −log10 of the molar value. Counter-ions that a name gives are not always drawn.
Reported values of pEC50 for individual entries

Past entries and their recorded results:
1) Cn1cnnc1-c1ccc(NC(=O)C(Cc2cc(-c3cccc(C4(O)CCC4)c3)ccc2Cl)NC(=O)c2ccnn2C)cc1 (stereo not shown); 6.00 to 7.00
2) Cn1cncc1-c1ccc(NC(=O)[C@H](Cc2cc(-c3cccc(C4CNCCO4)c3)ccc2Cl)NC(=O)c2ccnn2C)cc1 (stereo partly shown) [Example 219, hydrochloride]; 6.00 to 7.00
3) Cn1cncc1-c1ccc(NC(=O)C(Cc2cc(-c3ccnc(N4CCNCC4)c3)ccc2Cl)NC(=O)c2ccnn2C)cc1 (stereo not shown); 6.00 to 7.00
4) CN(C)Cc1cc(-c2ccc(Cl)c(CC(NC(=O)c3ccnn3C)C(=O)Nc3ccc(-c4nncn4C)cc3)c2)ccc1O (stereo not shown); < 6.00
5) CC(C)n1cc(-c2ccc(Cl)c(CC(NC(=O)c3ccnn3C)C(=O)Nc3ccc(-c4nncn4C)c(O)c3)c2)ccc1=O (stereo not shown); 6.00 to 7.00

Consider now this further compound.
[in] Name the recorded pEC50 for Cc1nocc1C(=O)NC(Cc1cc(-c2ccc(=O)n(C(C)C)c2)ccc1Cl)C(=O)Nc1ccc(-c2cn[nH]c2)cc1 (stereo not shown) .
[out] 6.00 to 7.00

----------
Target: human IL-17AA (Homo sapiens, UniProt Q16552)
Sequence (Q16552 24-155): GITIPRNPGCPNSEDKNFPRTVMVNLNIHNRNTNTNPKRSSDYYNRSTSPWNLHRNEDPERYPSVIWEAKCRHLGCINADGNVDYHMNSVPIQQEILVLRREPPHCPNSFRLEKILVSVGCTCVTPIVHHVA
Sequence (Q16552 24-155): as above
Assay: IL-8 release assay in human epithelial keratinocytes adult (HEKa)
Details: 3 ng/ml human IL-17AA + 10 ng/ml human TNFalpha, 68-72 h, IL-8 by HTRF, read-out: Rel EC50 L-8 release assay
pEC50: −log10 of the molar value.
recorded-metric: pEC50

Past entries and their recorded results:
1) Cc1ncn(C)c1-c1ccc(NC(=O)[C@@H](NC(=O)C2(F)CC2)[C@@H]2CCc3ccc(-c4ccnc(N5C[C@@H]6C[C@H]5CO6)c4)cc32)cc1O [Example 358]; > 7.00
2) Cn1cnnc1-c1ccc(NC(=O)C(Cc2cc(-c3ccnc(CC(C)(C)O)c3)ccc2Cl)NC(=O)c2ccnn2C)cc1 (stereo not drawn) [Example 64]; < 6.00
3) Cc1nocc1C(=O)NC(Cc1cc(-c2cccc(C(=O)N3CC(F)C3)c2)ccc1Cl)C(=O)Nc1ccc(-c2nncn2C)cc1 (stereo not drawn) [Example 120]; 6.00 to 7.00
4) Cc1cnn(C)c1-c1ccc(NC(=O)[C@@H](NC(=O)c2ccnn2C)[C@@H]2CCc3ccc(-c4cc(N5C[C@@H]6C[C@H]5CO6)ncn4)cc32)cc1 [Example 386]; 6.00 to 7.00
5) Cn1cnnc1-c1ccc(NC(=O)C(Cc2cc(-c3cccc(CC4CC4)c3)ccc2Cl)NC(=O)c2ccnn2C)cc1 (stereo not drawn) [Example 169]; 6.00 to 7.00
6) CC(C)n1cc(-c2cccc(C(c3ccccc3)C(NC(=O)OC3CC3)C(=O)Nc3ccc(-c4cncn4C)cc3)c2)ccc1=O (single isomer, unassigned) [Example 231]; 6.00 to 7.00
7) Cc1cnn(C)c1-c1ccc(NC(=O)[C@H](Cc2cc(-c3ccc(=O)n(C(C)C)c3)ccc2Cl)NC(=O)c2ccno2)cc1 [Example 324]; 6.00 to 7.00
8) Cc1cnn(C)c1-c1ccc(NC(=O)[C@@H](NC(=O)C2(F)CC2)[C@@H]2CCc3ccc(-c4cc(N5C[C@@H]6C[C@H]5CO6)cnn4)cc32)cc1 [Example 383]; < 6.00
9) Cc1n[nH]c(C)c1-c1ccc(NC(=O)[C@H](Cc2cc(-c3ccnc(N4CC[S+]([O-])CC4)n3)ccc2Cl)NC(=O)C2(F)CC2)cc1 [Example 315]; > 7.00
10) Cn1cnnc1-c1ccc(NC(=O)C(Cc2cc(-c3ccc(O)c(CN4CCC4)c3)ccc2Cl)NC(=O)c2ccnn2C)cc1 (stereo not drawn) [Example 168]; 6.00 to 7.00

[in] Value wanted: pEC50 (human IL-17AA (Homo sapiens, UniProt Q16552)) of entry Cc1n[nH]cc1-c1ccc(NC(=O)C(NC(=O)c2ccnn2C)C(c2ccccc2)c2cccc(-c3ccc(=O)n(C(C)C)c3)c2)cc1 (single isomer, unassigned; diastereomer 1) [Example 235]
[out] > 7.00

[in] Value wanted: pEC50 (human IL-17AA (Homo sapiens, UniProt Q16552)) of entry CC(C)n1cc(-c2ccc(Cl)c(CC(NC(=O)C(F)(F)c3ccccc3)C(=O)Nc3ccc(-c4nncn4C)cc3)c2)ccc1=O (stereo not drawn) [Example 97]
[out] < 6.00

----------
Molecular target: human IL-17AA (Homo sapiens)
Assay: IL-8 release assay in human epithelial keratinocytes adult (HEKa)
Conditions: 3 ng/ml human IL-17AA + 10 ng/ml human TNFalpha, 68-72 h, IL-8 by HTRF, read-out: Rel EC50 L-8 release assay
pEC50: −log10 of the molar value.
Reported values of pEC50 for individual entries

Past entries and their recorded results:
1. Cc1cc(-c2ccc3c(c2)[C@H]([C@H](NC(=O)C2(F)CC2)C(=O)Nc2ccc(-n4ccnc4C)cc2)CCC3)cn(C(C)C)c1=O; 6.00 to 7.00
2. Cc1n[nH]c(C)c1-c1ccc(NC(=O)[C@H](Cc2cc(-c3ccnc(N4C[C@@H]5C[C@H]4CN5)c3)ccc2Cl)NC(=O)C2(F)CC2)cc1; > 7.00
3. Cn1cncc1-c1ccc(NC(=O)[C@H](Cc2cc(-c3ccnc(C(O)C4CC4)c3)ccc2Cl)NC(=O)C2(F)CC2)cc1 (stereo partly drawn); 6.00 to 7.00
4. Cc1n[nH]c(C)c1-c1ccc(NC(=O)[C@@H](NC(=O)C2(F)CC2)[C@@H]2CCc3ccc(-c4ccc(=O)n(C(C)C)c4)cc32)cc1 [Example 6]; 6.00 to 7.00

[in] Value wanted: pEC50 (human IL-17AA (Homo sapiens)) of entry Cc1cnn(C)c1-c1ccc(NC(=O)[C@@H](NC(=O)C2(F)CC2)[C@@H](c2cccc(-c3cncc(N4C[C@@H]5C[C@H]4CO5)c3)c2)C2CC2)cc1
[out] > 7.00

[in] Value wanted: pEC50 (human IL-17AA (Homo sapiens)) of entry CC(C)n1cc(-c2ccc(Cl)c(C[C@H](NC(=O)[C@@H]3CC3(F)F)C(=O)Nc3ccc(-c4nncn4C)cc3)c2)ccc1=O
[out] < 6.00

----------
Molecular target: UniProt Q16552
Experiment: IL-8 release assay in human epithelial keratinocytes adult (HEKa)
Settings: 3 ng/ml human IL-17AA + 10 ng/ml human TNFalpha, 68-72 h, IL-8 by HTRF, read-out: Rel EC50 L-8 release assay
Reported values of EC50 for individual entries

1. CC(C)CC(=O)N[C@@H](Cc1cc(-c2ccc(=O)n(C(C)C)c2)ccc1Cl)C(=O)Nc1ccc(-c2nncn2C)cc1; > 1 µM
2. Cn1cnnc1-c1ccc(NC(=O)[C@@H](NC(=O)C2(F)CC2)[C@@H]2CCCc3ccc(-c4ccnc(N5C[C@H]6C[C@@H]5CO6)c4)cc32)cc1; > 1 µM

Consider now this further compound.
[in] Name the recorded EC50 for Cc1n[nH]c(C)c1-c1ccc(NC(=O)[C@@H](NC(=O)C2(F)CC2)[C@@H]2CCCc3ccc(-c4ccc(CN5C[C@H]6C[C@@H]5CO6)cc4)cc32)cc1 .
[out] 0.1 to 1 µM

----------
Biological target: human IL-17AA (Homo sapiens)
Test: IL-8 release assay in human epithelial keratinocytes adult (HEKa)
Conditions: 3 ng/ml human IL-17AA + 10 ng/ml human TNFalpha, 68-72 h, IL-8 by HTRF, read-out: Rel EC50 L-8 release assay
recorded-metric: EC50

1) Cn1cncc1-c1ccc(NC(=O)[C@H](Cc2cc(-c3cccc([C@@H]4CNCCO4)c3)ccc2Cl)NC(=O)c2ccnn2C)cc1 [Example 221]; 100 to 1000 nM
2) CC(C)c1cc(-c2ccc(Cl)c(CC(NC(=O)c3ccnn3C)C(=O)Nc3ccc(-c4nncn4C)cc3)c2)ccc1C#N (stereo not drawn) [Example 202]; 100 to 1000 nM
3) CC(C)n1cc(-c2ccc(Cl)c(CC(NC(=O)c3ccnn3C)C(=O)Nc3ccc(-c4cncn4C)cc3)c2)ccc1=O (stereo not drawn) [Example 79]; 100 to 1000 nM
4) Cc1n[nH]c(C)c1-c1ccc(NC(=O)[C@@H](NC(=O)C2(F)CC2)[C@@H]2CCCc3ccc(-c4ccnc(N5C[C@H]6C[C@@H]5CO6)c4)cc32)cc1 [Example 387]; < 100 nM
5) C[C@H]1CNCCN1c1cc(-c2ccc(Cl)c(C[C@H](NC(=O)c3ccnn3C)C(=O)Nc3ccc(-c4cncn4C)cc3)c2)ccn1 [Example 208]; 100 to 1000 nM

Consider now this further compound.
[in] Name the recorded EC50 for Cc1cnn(C)c1-c1ccc(NC(=O)[C@@H](NC(=O)C2(F)CC2)[C@@H]2CCc3ccc(-c4ccnc(N5C[C@@H]6C[C@H]5CO6)c4)cc32)cc1O [Example 369] .
[out] < 100 nM
